Assay: Volume of distribution was determined in rat at a dose of 1 mpk i.v.
Type: ADME, organism-based
Settings: in vivo, iv, 1 mg/kg, read-out: Vdss
Property Name: Vd (L/kg)

A. CCCCCCCCc1ccc(CCC(N)(CO)COP(=O)(O)O)cc1 (stereo not drawn)
B. CCCCCCCCc1ccc(CC[C@@H](N)C[C@H](O)P(=O)(O)O)cc1
C. CCCCCCCCc1ccc(CC[C@@H](N)C[C@@H](O)P(=O)(O)O)cc1
**Q:** Reorder the list above by recorded Vd in ascending order. Provide your answer as the labels ordered per the instruction.
**A:** B, C, A
(B: 0.7 L/kg, C: 1.4 L/kg, A: 5.9 L/kg)
